Test system: MS2 coat protein
TEST: apparent KD of MS2 coat protein; designed switch direction (-1 OFF switch, 1 ON switch): 1; higher = weaker reporter binding
MEASUREMENT CONTEXT: input ligand: microRNA oligo, concentration not stated
For each record, write down the corresponding apparent KD of MS2 coat protein.
Kindly answer with a numeric value in nM, unit omitted.

q: Given UAUGACUUACAAGGAUAUUAAUAACAUGAGGAUCACCCAUGUGGCUGUGUGUGUUAGAUAAGCUAUAAGAAGGUGUGUGUGUUU [JR_SSNG2_Sub095] (Eterna round: R96, puzzle: Same State NG 2) , state its recorded apparent KD of MS2 coat protein.
a: 244

q: Quick one: apparent KD of MS2 coat protein of AAUUUAAUACAUGAGGAUCACCCAUGUAAUACUAGUAAGAUCUAGGAUAUCAGCUCGUUUAGAGCUGAGAAGGAGAUCACAUGU [SSNG3/19-C3] (Eterna round: R96, puzzle: Same State NG 3) ?
a: 62.1

q: Need apparent KD of MS2 coat protein, item GGAGCCGACACUGAGGAUAUUCAUAUUAAAACAUGAGGAUCACCCAUGUAGGCCAGAAGGCCUUGGGAGAAGGCAGGCCGGCUCG [Inxebi] (Eterna round: R96, puzzle: Same State 2)
a: 166

q: For the sequence CCGGGUAAUGGAGGAUAUGGAGCCUUAUUGGCUCCAGAAGGUCAAUAACAUGAGGAUCACCCAUGUCCGGCGGUCAAUAGACCG [Eli NG1ss - 68] (Eterna round: R96, puzzle: Same State NG 1) , what apparent KD of MS2 coat protein is on record?
a: 202

q: Look at this sequence and give its reported apparent KD of MS2 coat protein. CCGGUUAAUGGAGGAUAUGGAGCCUUAUUGGCUCCAGAAGGCUAACAUGAGGAUCACCCAUGUUUACCGGCGGUCAAUAGACCG [Eli NG1ss - 62] (Eterna round: R96, puzzle: Same State NG 1)
a: 11
